B1: CPEB3 Ribozyme (parent)
chain: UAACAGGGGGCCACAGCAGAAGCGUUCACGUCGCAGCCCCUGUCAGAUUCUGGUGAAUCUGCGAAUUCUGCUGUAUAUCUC

# Variants of: B1
# run.description: self-cleavage, relative activity (ratio to wild type); higher = more cleavage; in vitro, sequencing
Recorded self-cleavage determines the group label, using bucket 1 = under 0.2, bucket 2 = from 0.2 up to 0.8, bucket 3 = 0.8 and over

mutation.notation | assigned.category
U58A G73A | bucket 3
U76A U80C | bucket 3
G9A G30U | bucket 1
U48C G70C | bucket 2

Input: Lab log: A35G A45U — assign self-cleavage category
Output: bucket 3

Input: Band assignment needed for A5U A28C please.
Output: bucket 2
